- assay method text: Physicochemical stability test of free form and 5 salts (60° C., 40° C./75% humidity, light)
- assay conditions: 60° C., 1 w
- Method: In the case of a light stability test, the vial was stored in a light stability test chamber while being not closed with a lid, and exposed to a total illuminance of 1.2 million lux-hr. A vial light-shielded with aluminum foil was used as an experimental control (Dark control). For stability assessment, state assessment by visual observation, purity assessment using HPLC, and crystalline form assessment using XRPD were conducted, and results thereof are shown in Table 7. […]
Kindly supply the reported Purity change values for the records listed here.
Supply the numeric figure in %, leaving out any unit text.

Entry CS(=O)(=O)O.O=S1(=O)CCN(Cc2cc(NC3CCOCC3)c3[nH]c(-c4ccccc4)cc3c2)CC1 [Mesylate] needs its Purity change filled in; supply it.
0

Item Cc1ccc(S(=O)(=O)O)cc1.O=S1(=O)CCN(Cc2cc(NC3CCOCC3)c3[nH]c(-c4ccccc4)cc3c2)CC1 [Tosylate] : provide Purity change
−0.05

Input O=C(O)/C=C\C(=O)O.O=S1(=O)CCN(Cc2cc(NC3CCOCC3)c3[nH]c(-c4ccccc4)cc3c2)CC1 [Maleate] , output reported Purity change.
−0.44

----------
- assay method text: Solubility test of sulfate (Crystalline form III) in various solvents
- Assay type: physicochemical
- assay conditions: aqueous with cosolvent or surfactant or cyclodextrin, thermodynamic from solid; MeOH/H2O = 1:1(v/v), 25° C.; read-out: Solubility
parameter measured: solubility

Return reported solubility. Input compound: O=S1(=O)CCN(Cc2cc(NC3CCOCC3)c3[nH]c(-c4ccccc4)cc3c2)CC1 [Sulfate]
2000 to 3000 µg/mL

----------
- assay method text: Solubility test of sulfate (Crystalline form III) in various solvents
- Assay type: physicochemical
- assay conditions: organic solvent or mixture, thermodynamic from solid; Heptane, 50° C.; read-out: Solubility
parameter measured: solubility

Look up and state reported solubility for O=S1(=O)CCN(Cc2cc(NC3CCOCC3)c3[nH]c(-c4ccccc4)cc3c2)CC1 [Sulfate]
< 2000 µg/mL

----------
- assay method text: Solubility test of sulfate (Crystalline form III) in various solvents
- Assay type: physicochemical
- assay conditions: organic solvent or mixture, thermodynamic from solid; 2-MeTHF, 50° C.; read-out: Solubility
parameter measured: solubility

Please list solubility recorded for the compound O=S1(=O)CCN(Cc2cc(NC3CCOCC3)c3[nH]c(-c4ccccc4)cc3c2)CC1 [Sulfate]
< 2000 µg/mL

----------
- assay method text: Physicochemical stability test of free form and 5 salts (60° C., 40° C./75% humidity, light)
- assay conditions: light stability; summary Table 9
Kindly supply the reported Chemical stability (purity change %/1 w), Light stability values for the records listed here.
I only need the number, in %, no unit after it.

// fetch Chemical stability (purity change %/1 w), Light stability given entry O=S1(=O)CCN(Cc2cc(NC3CCOCC3)c3[nH]c(-c4ccccc4)cc3c2)CC1 [Sulfate]
0.14

Provide only the value of recorded Chemical stability (purity change %/1 w), Light stability for Cl.O=S1(=O)CCN(Cc2cc(NC3CCOCC3)c3[nH]c(-c4ccccc4)cc3c2)CC1 [Hydrochloride]
0

Please give measured Chemical stability (purity change %/1 w), Light stability of the following entry: Cc1ccc(S(=O)(=O)O)cc1.O=S1(=O)CCN(Cc2cc(NC3CCOCC3)c3[nH]c(-c4ccccc4)cc3c2)CC1 [Tosylate]
−0.24

Look up Chemical stability (purity change %/1 w), Light stability of CS(=O)(=O)O.O=S1(=O)CCN(Cc2cc(NC3CCOCC3)c3[nH]c(-c4ccccc4)cc3c2)CC1 [Mesylate] and report it.
−0.82

Give Chemical stability (purity change %/1 w), Light stability for the following compound: O=C(O)/C=C\C(=O)O.O=S1(=O)CCN(Cc2cc(NC3CCOCC3)c3[nH]c(-c4ccccc4)cc3c2)CC1 [Maleate]
−0.17
